All figures here come from patent US8486985B2.

Give measured pEC50 for each item. Keep answers brief.
- SUBJECT_OF_TEST: alpha 2B receptor (Homo sapiens, UniProt P18089)
- Construct: expressed in transfected cells; host or cells: NIH-3T3 cells
- Sequence (P18089 1-450): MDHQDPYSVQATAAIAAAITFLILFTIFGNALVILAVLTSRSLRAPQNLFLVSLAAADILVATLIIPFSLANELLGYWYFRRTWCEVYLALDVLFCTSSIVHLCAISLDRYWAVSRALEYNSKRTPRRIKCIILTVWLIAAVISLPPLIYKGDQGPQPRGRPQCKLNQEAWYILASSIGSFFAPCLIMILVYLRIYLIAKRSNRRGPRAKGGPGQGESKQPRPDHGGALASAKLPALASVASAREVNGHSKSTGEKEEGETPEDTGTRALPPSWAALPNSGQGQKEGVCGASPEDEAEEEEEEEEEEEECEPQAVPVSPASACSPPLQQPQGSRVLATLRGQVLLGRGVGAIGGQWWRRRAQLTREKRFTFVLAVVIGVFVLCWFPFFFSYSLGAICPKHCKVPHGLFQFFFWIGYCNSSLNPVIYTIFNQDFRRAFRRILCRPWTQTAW
- TEST_SUMMARY: RSAT (Receptor Selection and Amplification Technology) assay, alpha 2B
- Type: cell-based
Please report pEC50 as the negative decimal logarithm of the molar concentration, giving only the number.

So what's the measured pEC50 for this one? C[C@H](NC1=NCCN1)c1cccc(Cl)c1Cl
7.72

So what's the measured pEC50 for this one? C[C@@H](NC1=NCCN1)c1cccc(Cl)c1Cl
7.51

So what's the measured pEC50 for this one? CCC(NC1=NCCN1)c1cccc(Cl)c1Cl (stereo not drawn)
7.42
